Origin of measurements: PubChem BioAssay AID1159580

experimentDescription: chemical genetic growth profiling, strain panel (AID 1159580);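 also: tested at 20 µM; growth read once vehicle control cultures reached saturation at 30 °C; 1 = growth at the plate median or of vehicle wells; lower values mean less growth of the strain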
conditions: S. cerevisiae deletion strains, growth OD, locus YDL040C, strain nat1, active compounds read low
Structures can show the parent of a compound that is named as a salt. About 2,000 (36%) of roughly 5,500 compounds were called active. Inconclusive results (about 18%) are left out. This is one part of the list. Where a SMILES comes first, the peptide text is derived from it. The star is where a group is joined. Tfa = O=C(C(F)(F)F)*
valueKind: normalized growth
Answers are plain numbers.

Solved entries (count: 5):
- molecule: "COC(=O)C(O)c1ccccc1 (stereo not given)"
  normalized growth: 0.991
- molecule: "COc1ccc([C@H]2Oc3cc(OC)cc(OC)c3C[C@H]2O)cc1"
  normalized growth: 1
- molecule: "CCCOc1ccc(C(=O)OCCN(CC)CC)cc1N"
  normalized growth: 1
- molecule: "CCCCCCCCCCCCCCCC(=O)OC1C(SC)OC(C(NC(=O)C2CC(CCC)CN2C)C(C)Cl)C(O)C1O (stereo not given)"
  normalized growth: 0.979
- molecule: "Cc1cccc(C)c1NC1=NCCCS1"
  normalized growth: 1

// batch mode: one normalized growth value per listed entry
1. CCC(C)(C)C(=O)O[C@H]1C[C@@H](C)C=C2C=C[C@H](C)[C@H](CC[C@@H]3C[C@@H](O)CC(=O)O3)[C@H]21
2. COC(=O)[C@@H]1OC(=O)[C@H]2O[C@@]23[C@@]1(C)CCC1[C@@]2(C)CCC(=O)C(C)(C)C2C[C@@H](OC(C)=O)[C@]13C (stereo not given in full)
3. CC(C)C(NC(=O)C(Cc1ccc(O)cc1)NC(=O)C(NC(=O)C(F)(F)F)C(C)C)C(=O)O (stereo not drawn) (Tfa-Val-Tyr-Val-OH; configuration not given here)

Given back:
1. 0.997
2. 0.987
3. 0.976

----------
experimentDescription: chemical genetic growth profiling, strain panel (AID 1159580);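 also: tested at 20 µM; growth read once vehicle control cultures reached saturation at 30 °C; 1 = growth at the plate median or of vehicle wells; lower values mean less growth of the strain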
conditions: S. cerevisiae deletion strains, growth OD, strain wtn01, active compounds read low
The campaign covered roughly 5,500 compounds. About 2,000 (36%) were called active. About 18% were inconclusive and are not listed. The list shows a part of the results.
valueKind: normalized growth
Answers are plain numbers.

- molecule: "OC(Cn1cncn1)(Cn1cncn1)c1ccc(F)cc1F"
  valueKind: "normalized growth"
  endpointResult: 0.981
- molecule: "CO/N=C(\\C(=O)N[C@@H]1C(=O)N2C(C(=O)O)=C(CSc3nc(=O)c(O)nn3C)CS[C@H]12)c1csc(N)n1"
  valueKind: "normalized growth"
  endpointResult: 0.981
- molecule: "CC1(C)O[C@H]2[C@H](O)C[C@](O)(C(N)=O)C[C@H]2O1"
  valueKind: "normalized growth"
  endpointResult: 1.03
- molecule: "CO/N=C(\\C(=O)N[C@@H]1C(=O)N2C(C(=O)O)=C(COC(C)=O)CS[C@H]12)c1csc(N)n1"
  valueKind: "normalized growth"
  endpointResult: 0.999
- molecule: "CC(=O)OCC(COC(C)=O)OC(C)=O"
  valueKind: "normalized growth"
  endpointResult: 1.04

// batch mode: one normalized growth value per listed entry
1. CC(=O)OCC[C@H](C)CCC=C(C)C
2. CC(=O)OCC(OC(C)=O)C(OC(C)=O)C(OC(C)=O)C(OC(C)=O)C(COC(C)=O)OC(C)=O (stereo not given)
3. CO/N=C(\C(=O)NC1C(=O)N2C(C(=O)O)=C(COC(N)=O)CSC12)c1ccco1 (stereo not given)
4. Cc1cc(-c2ccccc2)nnc1NCCN1CCOCC1
5. CCN(CC)C(=O)c1cccc(C)c1

Given back:
1. 1.02
2. 1.03
3. 0.0569
4. 0.982
5. 0.988
